Value source: paper PMC9268243

assay: Pharmacokinetic study of six aconitum alkaloids in rat plasma after oral Fu Zi extracts (UPLC-MS/MS); type: in vivo, Sprague Dawley rats; conditions: both sexes, Sprague Dawley, in vivo; SD rat plasma, oral Fu Zi extracts 0.5 g/kg, mean ± SD, n = 8
The following molecules are shown together with reported Cmax values.
Express your answer in ng/mL, writing the number without its unit.

The examples below pair each entry with its known result.
1) CCN1CC2(COC)C(O)CC(OC)C34C5CC6(O)C(OC)C(O)C(O)(C5C6OC(=O)c5ccccc5)C(C(OC)C23)C14 (stereo not drawn) [BAC, benzoylaconine]
1.52
2) CCN1C[C@]2(COC)[C@H](O)C[C@H](OC)[C@@]34[C@@H]5C[C@@]6(O)[C@H](OC(=O)c7ccccc7)[C@@H]5[C@@](OC(C)=O)([C@@H]([C@H](OC)[C@H]23)[C@@H]14)[C@@H](O)[C@@H]6OC [AC, aconitine]
1.28

Now let's try a different one.
input: Recorded Cmax of COC[C@@]12CC[C@H](OC)[C@]34C(C([C@H](OC)[C@H]13)[C@]1(OC(C)=O)[C@H]3[C@@H](OC(=O)c5ccccc5)[C@](O)(C[C@H]34)[C@@H](OC)[C@@H]1O)N(C)C2 [HA, hypaconitine] , please.
output: 6.37

====

Recorded AUC(0-t) values for a group of compounds are listed next.
assay: Pharmacokinetic study of six aconitum alkaloids in rat plasma after oral Fu Zi extracts (UPLC-MS/MS); type: in vivo, Sprague Dawley rats; details: both sexes, Sprague Dawley, in vivo; SD rat plasma, oral Fu Zi extracts 2.0 g/kg, mean ± SD, n = 8; read-out: AUC(0–48h)
Use µg·h/mL as the unit, but write only the number.

Examples with answers:
1) COC[C@@]12CC[C@H](OC)[C@]34C(C([C@H](OC)[C@H]13)[C@]1(OC(C)=O)[C@H]3[C@@H](OC(=O)c5ccccc5)[C@](O)(C[C@H]34)[C@@H](OC)[C@@H]1O)N(C)C2 [HA, hypaconitine]
0.186
2) CCN1C[C@]2(COC)[C@H](O)C[C@H](OC)[C@@]34[C@@H]5C[C@@]6(O)[C@H](OC(=O)c7ccccc7)[C@@H]5[C@@](OC(C)=O)([C@@H]([C@H](OC)[C@H]23)[C@@H]14)[C@@H](O)[C@@H]6OC [AC, aconitine]
0.0238

Would you kindly look at the next entry?
input: Request the reported AUC(0-t) associated with CCN1CC2(COC)C(O)CC(OC)C34C5CC6(O)C(OC)C(O)C(O)(C5C6OC(=O)c5ccccc5)C(C(OC)C23)C14 (stereo not drawn) [BAC, benzoylaconine]
output: 0.0505

====

assay: Pharmacokinetic study of six aconitum alkaloids in rat plasma after oral Fu Zi extracts (UPLC-MS/MS); type: in vivo, Sprague Dawley rats; conditions: both sexes, Sprague Dawley, in vivo; SD rat plasma, oral Fu Zi extracts 2.0 g/kg, mean ± SD, n = 8; read-out: Vz/F
Result type: Vd/F (L/kg)
State the answer as a number, implicitly in L/kg.

1. CCN1CC2(COC)C(O)CC(OC)C34C5CC6(O)C(OC)C(O)C(O)(C5C6OC(=O)c5ccccc5)C(C(OC)C23)C14 (stereo not drawn)
801
2. COC[C@@]12CC[C@H](OC)[C@]34C(C([C@H](OC)[C@H]13)[C@]1(OC(C)=O)[C@H]3[C@@H](OC(=O)c5ccccc5)[C@](O)(C[C@H]34)[C@@H](OC)[C@@H]1O)N(C)C2
80.4

Attention now shifts to the item below.
input: Requested field: Vd/F. Item: CCN1C[C@]2(COC)[C@H](O)C[C@H](OC)[C@@]34[C@@H]5C[C@@]6(O)[C@H](OC(=O)c7ccccc7)[C@@H]5[C@@](OC(C)=O)([C@@H]([C@H](OC)[C@H]23)[C@@H]14)[C@@H](O)[C@@H]6OC
output: 167

====

experiment: Pharmacokinetic study of six aconitum alkaloids in rat plasma after oral Fu Zi extracts (UPLC-MS/MS); assay type: in vivo, Sprague Dawley rats; details: both sexes, Sprague Dawley, in vivo; SD rat plasma, oral Fu Zi extracts 1.0 g/kg, mean ± SD, n = 8
Result type: Cmax (ng/mL)
Numeric only. Scale: ng/mL

input: Endpoint output: Cmax of COC[C@@]12CC[C@H](OC)[C@]34C(C([C@H](OC)[C@H]13)[C@]1(OC(C)=O)[C@H]3[C@@H](OC(=O)c5ccccc5)[C@](O)(C[C@H]34)[C@@H](OC)[C@@H]1O)N(C)C2 . Value?
output: 9.22

input: Dear colleague, I am looking for the recorded Cmax of the following compound: CCN1C[C@]2(COC)[C@H](O)C[C@H](OC)[C@@]34[C@@H]5C[C@@]6(O)[C@H](OC(=O)c7ccccc7)[C@@H]5[C@@](OC(C)=O)([C@@H]([C@H](OC)[C@H]23)[C@@H]14)[C@@H](O)[C@@H]6OC
output: 1.69

input: Recorded Cmax of CCN1CC2(COC)C(O)CC(OC)C34C5CC6(O)C(OC)C(O)C(O)(C5C6OC(=O)c5ccccc5)C(C(OC)C23)C14 (stereo not drawn) , please.
output: 3.24

====

assay: Pharmacokinetic study of six aconitum alkaloids in rat plasma after oral Fu Zi extracts (UPLC-MS/MS); type: in vivo, Sprague Dawley rats; details: both sexes, Sprague Dawley, in vivo; SD rat plasma, oral Fu Zi extracts 1.0 g/kg, mean ± SD, n = 8; read-out: Vz/F
Listed below: Vd/F values for each entry.
Entry rule: numbers only, all in L/kg.

# example entries with known answers
1) CCN1CC2(COC)C(O)CC(OC)C34C5CC6(O)C(OC)C(O)C(O)(C5C6OC(=O)c5ccccc5)C(C(OC)C23)C14 (stereo not drawn)
152
2) COC[C@@]12CC[C@H](OC)[C@]34C(C([C@H](OC)[C@H]13)[C@]1(OC(C)=O)[C@H]3[C@@H](OC(=O)c5ccccc5)[C@](O)(C[C@H]34)[C@@H](OC)[C@@H]1O)N(C)C2
45.3

Moving on to the next molecule.
input: Which Vd/F value belongs to CCN1C[C@]2(COC)[C@H](O)C[C@H](OC)[C@@]34[C@@H]5C[C@@]6(O)[C@H](OC(=O)c7ccccc7)[C@@H]5[C@@](OC(C)=O)([C@@H]([C@H](OC)[C@H]23)[C@@H]14)[C@@H](O)[C@@H]6OC ?
output: 70

====

# reported Tmax; entries follow
assay: Pharmacokinetic study of six aconitum alkaloids in rat plasma after oral Fu Zi extracts (UPLC-MS/MS); format: in vivo, Sprague Dawley rats; conditions: both sexes, Sprague Dawley, in vivo; SD rat plasma, oral Fu Zi extracts 2.0 g/kg, mean ± SD, n = 8
Numeric answer only, unit h assumed.

input: Quick check: Tmax of COC[C@@]12CC[C@H](OC)[C@]34C(C([C@H](OC)[C@H]13)[C@]1(OC(C)=O)[C@H]3[C@@H](OC(=O)c5ccccc5)[C@](O)(C[C@H]34)[C@@H](OC)[C@@H]1O)N(C)C2 ?
output: 1.6

input: Tell me the measured Tmax of CCN1CC2(COC)C(O)CC(OC)C34C5CC6(O)C(OC)C(O)C(O)(C5C6OC(=O)c5ccccc5)C(C(OC)C23)C14 (stereo not drawn) , please.
output: 0.34

input: Which measured Tmax value corresponds to CCN1C[C@]2(COC)[C@H](O)C[C@H](OC)[C@@]34[C@@H]5C[C@@]6(O)[C@H](OC(=O)c7ccccc7)[C@@H]5[C@@](OC(C)=O)([C@@H]([C@H](OC)[C@H]23)[C@@H]14)[C@@H](O)[C@@H]6OC ?
output: 1.03
